Values from the supplement of paper PMC12855868

B1: library; numbered along this chain (parent)
chain: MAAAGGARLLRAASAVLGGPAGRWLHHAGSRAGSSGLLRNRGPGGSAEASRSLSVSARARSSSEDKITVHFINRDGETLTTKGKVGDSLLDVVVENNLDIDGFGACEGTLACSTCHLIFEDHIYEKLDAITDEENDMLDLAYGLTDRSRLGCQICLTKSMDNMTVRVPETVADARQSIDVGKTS

variants of: B1; assay: scaled log2 fold change in cell abundance, elesclomol vs control (0 = silent mean, 1 = nonsense mean) (scaled log2 ratio); higher = higher viability under elesclomol (loss of FDX1 cuproptosis function); settings: with HEK293T FDX1 KO; elesclomol 40 nM; glucose 10 mM; 11 days;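 further: variant abundance is its share of total variant reads in each endpoint sample, from next-generation sequencing of the integrated ORF PCR-amplified out of genomic DNA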
readout: scaled log2 fold change
Give the figure only, with no unit attached.

See these solved cases before continuing.
{"mutation_list": "A2V", "observed_value": 0.473}
{"mutation_list": "I72Q", "observed_value": 0.0078}
{"mutation_list": "H26E", "observed_value": 0.955}
{"mutation_list": "A4N", "observed_value": -0.335}
{"mutation_list": "C106W", "observed_value": 1.27}
{"mutation_list": "A2T", "observed_value": -0.252}
{"mutation_list": "G151Y", "observed_value": 1.08}
{"mutation_list": "R166Y", "observed_value": 1.92}

**Q:** Output scaled log2 fold change of I123K
**A:** 0.365

**Q:** Please list scaled log2 fold change recorded for the variant E95P
**A:** -0.222

**Q:** Supply scaled log2 fold change value. Item: T183S
**A:** -0.869
